Target: human orexin-2 receptor (Homo sapiens (Human), UniProt O43614)
Sequence (O43614 whole entry): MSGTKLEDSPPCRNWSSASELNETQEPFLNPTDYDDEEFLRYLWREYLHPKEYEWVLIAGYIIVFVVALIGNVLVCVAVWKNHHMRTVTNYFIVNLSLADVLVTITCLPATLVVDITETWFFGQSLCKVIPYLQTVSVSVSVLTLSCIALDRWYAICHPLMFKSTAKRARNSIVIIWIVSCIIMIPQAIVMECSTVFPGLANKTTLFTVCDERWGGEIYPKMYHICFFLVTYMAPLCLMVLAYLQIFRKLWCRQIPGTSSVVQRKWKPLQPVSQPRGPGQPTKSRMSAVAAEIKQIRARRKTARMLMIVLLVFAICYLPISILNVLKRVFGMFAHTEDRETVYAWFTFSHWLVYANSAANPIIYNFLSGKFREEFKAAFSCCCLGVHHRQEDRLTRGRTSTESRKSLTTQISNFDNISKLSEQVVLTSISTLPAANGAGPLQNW
Assay: Intracellular calcium measurements (FLIPR), antagonism of orexin-A response
Format: cell-based
Conditions: CHO cells, 3 nM orexin-A, compound incubation time of 120 min; read-out: IC50 Ox2
pIC50: −log10 of the molar value.
reported_endpoint: pIC50

COc1cc(C)ccc1S(=O)(=O)N1CCC[C@H]1C(=O)Nc1cc(C)cc(C)c1: 6.77

1. Cc1cc(C)cc(NC(=O)[C@@H]2CCCN2S(=O)(=O)c2ccc(C)cc2Br)c1
2. Cc1cc(C)cc(NC(=O)[C@@H]2CCCN2S(=O)(=O)c2ccc(Cl)c(C(F)(F)F)c2)c1
Query block: I'm curious, which of these has a smaller pIC50 number: 1 or 2 ? Respond with the label that goes with your answer.
Result block: 1
(1: 7.09, 2: 7.72)

###

Biological target: human orexin-2 receptor (Homo sapiens (Human), UniProt O43614)
Test: Intracellular calcium measurements (FLIPR), antagonism of orexin-A response
Type: cell-based
Conditions: CHO cells, 3 nM orexin-A, compound incubation 10 min; read-out: IC50 Ox2
reported_endpoint: IC50 (µM)

Some compounds with recorded IC50:
COc1ccc(S(=O)(=O)N2CCC[C@H]2C(=O)Nc2cc(Cl)ccc2OC)cc1: 0.209
COc1ccc(S(=O)(=O)N2CCC[C@H]2C(=O)Nc2cccc(C)c2)cc1: 0.017

A. COc1ccc(S(=O)(=O)N2CCC[C@H]2C(=O)Nc2cccc3ccccc23)cc1
B. CSc1cccc(NC(=O)[C@@H]2CCCN2S(=O)(=O)c2ccc(C(F)(F)F)cc2)c1
Query block: Could you please tell me which of these two has the higher IC50: A or B ? Respond with the label that goes with your answer.
Result block: A
(A: 0.171 µM, B: 0.017 µM)

###

Molecular target: UniProt O43614
Assay: Intracellular calcium measurements (FLIPR), antagonism of orexin-A response
Assay type: cell-based
Details: CHO cells, 3 nM orexin-A, compound incubation 10 min; read-out: IC50 Ox2
reported_endpoint: IC50 (nM)

O=C(Nc1ccccc1)[C@@H]1CCCN1S(=O)(=O)c1ccc(Br)s1 [Example 15]: 164
COc1ccc(S(=O)(=O)N2CCC[C@H]2C(=O)Nc2ccc(Cl)c(Cl)c2)cc1 [Example 40]: 58

I. COc1ccc(S(=O)(=O)N2CCC[C@H]2C(=O)Nc2cccc(C(F)(F)F)c2)cc1 [Example 17]
II. CCCc1ccc(S(=O)(=O)N2CCC[C@H]2C(=O)Nc2cccc(SC)c2)cc1 [Example 4]
Query block: I'm curious, which of these has a smaller IC50 number: I or II ? Respond with the label that goes with your answer.
Result block: I
(I: 9 nM, II: 47 nM)

###

Target: UniProtKB O43614
Assay: Intracellular calcium measurements (FLIPR), antagonism of orexin-A response
Assay type: cell-based
Details: CHO cells, 3 nM orexin-A, compound incubation 10 min; read-out: IC50 Ox2
reported_endpoint: IC50 (nM)

Some compounds with recorded IC50:
COc1ccc(S(=O)(=O)N2CCC[C@H]2C(=O)Nc2cccc(SC)c2)cc1OC: 3
COc1cccc(S(=O)(=O)N2CCC[C@H]2C(=O)Nc2cccc(SC)c2)c1: 8
COc1ccc(S(=O)(=O)N2CCC[C@H]2C(=O)Nc2ccc(F)c(Cl)c2)cc1: 34
COc1ccc(S(=O)(=O)N2CCC[C@H]2C(=O)Nc2ccc(Cl)c(C)c2)cc1: 18
COc1ccc(S(=O)(=O)N2CCC[C@H]2C(=O)Nc2ccc(C)c(C)c2)cc1: 29

1. COc1ccc(S(=O)(=O)N2CCC[C@H]2C(=O)Nc2cccc(Cl)c2)cc1
2. CCc1cccc(NC(=O)[C@@H]2CCCN2S(=O)(=O)c2ccc(OC)cc2)c1
Query block: I'm curious, which of these has a smaller IC50 number: 1 or 2 ? Respond with the label that goes with your answer.
Result block: 2
(2: 8 nM, 1: 31 nM)

###

Target: human orexin-1 receptor (Homo sapiens (Human), UniProt O43613)
Sequence (O43613 whole entry): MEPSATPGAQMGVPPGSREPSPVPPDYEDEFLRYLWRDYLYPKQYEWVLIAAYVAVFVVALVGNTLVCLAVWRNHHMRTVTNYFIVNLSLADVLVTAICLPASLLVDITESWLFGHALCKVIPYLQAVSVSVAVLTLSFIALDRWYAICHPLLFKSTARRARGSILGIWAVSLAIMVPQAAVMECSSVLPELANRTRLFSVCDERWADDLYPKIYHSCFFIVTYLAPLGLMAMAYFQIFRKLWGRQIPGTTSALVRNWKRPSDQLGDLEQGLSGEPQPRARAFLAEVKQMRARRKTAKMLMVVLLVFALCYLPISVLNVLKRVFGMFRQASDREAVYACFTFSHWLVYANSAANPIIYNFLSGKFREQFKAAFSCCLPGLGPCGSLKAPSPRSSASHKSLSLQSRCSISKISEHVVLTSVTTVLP
Assay: Intracellular calcium measurements (FLIPR), antagonism of orexin-A response
Type: cell-based
Conditions: CHO cells, 3 nM orexin-A, compound incubation time of 120 min; read-out: IC50 Ox1
reported_endpoint: IC50 (nM)

Some compounds with recorded IC50:
Cc1cc(C)cc(NC(=O)[C@@H]2CCCN2S(=O)(=O)c2cc(C(F)(F)F)ccc2Cl)c1: 1580
COc1ccc(S(=O)(=O)N2CCC[C@H]2C(=O)Nc2cc(C)cc(C)c2)cc1OC: 109
Cc1cc(C)cc(NC(=O)[C@@H]2CCCN2S(=O)(=O)c2ccc(Br)cc2)c1: 79
Cc1cc(C)cc(NC(=O)[C@@H]2CCCN2S(=O)(=O)c2ccc3ccccc3c2)c1: 73

A. Cc1cc(C)cc(NC(=O)[C@@H]2CCCN2S(=O)(=O)c2ccc(Br)cc2Cl)c1
B. COc1ccc(C)cc1S(=O)(=O)N1CCC[C@H]1C(=O)Nc1cc(C)cc(C)c1
Query block: I'm curious, which of these has a smaller IC50 number: A or B ? Respond with the label that goes with your answer.
Result block: B
(B: 43 nM, A: 179 nM)

###

Target: human orexin-2 receptor (Homo sapiens (Human), UniProt O43614)
Assay: Intracellular calcium measurements (FLIPR), antagonism of orexin-A response
Assay type: cell-based
Details: CHO cells, 3 nM orexin-A, compound incubation time of 120 min; read-out: IC50 Ox2
reported_endpoint: IC50 (nM)

Some molecules with recorded IC50:
Cc1cc(C)cc(NC(=O)[C@@H]2CCCN2S(=O)(=O)c2ccc(S(C)(=O)=O)cc2)c1: 197
Cc1cc(C)cc(NC(=O)[C@@H]2CCCN2S(=O)(=O)c2ccc(Cl)c(Cl)c2)c1: 158
Cc1cc(C)cc(NC(=O)[C@@H]2CCCN2S(=O)(=O)c2cccc3ccccc23)c1: 26
COc1ccc(S(=O)(=O)N2CCC[C@@H]2C(=O)Nc2cc(C)cc(C)c2)cc1 [Ref. Example, reference compound]: 6040
Cc1cc(C)cc(NC(=O)[C@@H]2CCCN2S(=O)(=O)c2ccc(C)cc2C)c1: 108

I. Cc1cc(C)cc(NC(=O)[C@@H]2CCCN2S(=O)(=O)c2ccc(C(F)(F)F)cc2Cl)c1
II. COc1ccc(S(=O)(=O)N2CCC[C@H]2C(=O)Nc2cc(C)cc(C)c2)cc1OC
III. Cc1cc(C)cc(NC(=O)[C@@H]2CCCN2S(=O)(=O)c2cc(C(F)(F)F)ccc2Cl)c1
Query block: List these items ordered by IC50, big to small. The labels, placed in the requested order, form the answer.
Result block: II, III, I
(II: 101 nM, III: 36 nM, I: 14 nM)

###

Biological target: human orexin-1 receptor (Homo sapiens (Human), UniProt O43613)
Assay: Intracellular calcium measurements (FLIPR), antagonism of orexin-A response
Format: cell-based
Settings: CHO cells, 3 nM orexin-A, compound incubation 10 min; read-out: IC50 Ox1
pIC50: −log10 of the molar value.
reported_endpoint: pIC50

Some molecules with recorded pIC50:
COc1ccc(S(=O)(=O)N2CCC[C@H]2C(=O)Nc2cc(Cl)cc(Cl)c2)cc1: 7.19
CCOc1cccc(NC(=O)[C@@H]2CCCN2S(=O)(=O)c2ccc(OC)cc2)c1: 6.87
COc1ccc(S(=O)(=O)N2CCC[C@H]2C(=O)Nc2ccc(C)c(C)c2)cc1: 6.76

a. COc1ccc(S(=O)(=O)N2CCC[C@H]2C(=O)Nc2cc(C)ccc2F)cc1
b. CCc1cccc(NC(=O)[C@@H]2CCCN2S(=O)(=O)c2ccc(OC)cc2)c1
c. CSc1cccc(NC(=O)[C@@H]2CCCN2S(=O)(=O)c2cccc(Br)c2)c1
d. CSc1cccc(NC(=O)[C@@H]2CCCN2S(=O)(=O)c2ccc(Br)cc2)c1
Query block: Form: Sort by [pIC50] Order [ ascending ] The labels, placed in the requested order, form the answer.
Result block: a, b, d, c
(a: 6.52, b: 7.27, d: 7.66, c: 8.15)

A. COc1ccc(S(=O)(=O)N2CCC[C@H]2C(=O)Nc2cccc(C(F)(F)F)c2)cc1
B. COc1ccc(S(=O)(=O)N2CCC[C@H]2C(=O)Nc2ccc3c(c2)CCC3)cc1
C. COc1ccc(S(=O)(=O)N2CCC[C@H]2C(=O)Nc2cccc(C#N)c2)cc1
Query block: List these items ordered by pIC50, big to small. The labels, placed in the requested order, form the answer.
Result block: A, B, C
(A: 7.26, B: 6.89, C: 6.00)

P. CSc1cccc(NC(=O)[C@@H]2CCCN2S(=O)(=O)c2ccc(C(F)(F)F)cc2)c1
Q. COc1cccc(S(=O)(=O)N2CCC[C@H]2C(=O)Nc2cccc(SC)c2)c1
R. COc1ccc(S(=O)(=O)N2CCC[C@H]2C(=O)Nc2ccc(F)c(F)c2)cc1
Query block: Form: Sort by [pIC50] Order [ ascending ] The labels, placed in the requested order, form the answer.
Result block: R, P, Q
(R: 6.24, P: 7.20, Q: 7.55)
